tested on: CHO-AA8; assay: cells; details: Cricetulus griseus, CHO-AA8, 18 h
Description: Growth inhibition of aerobic AA8 cells, after 18 hours exposure
Provide the reported log10(IC50) of each item.
Hello, just confirming the data are log10 of IC50 with units of µM.

Q: // returns reported log10(IC50) for input Cc1ccc([N+](=O)[O-])c2c(NCCCN(C)C)cc(-c3ccccc3)nc12
Ans: 1.08

Q: # iterate: CCCCNc1ccnc2cccc([N+](=O)[O-])c12
Ans: 0.98

Q: Param item: Cc1ccc([N+](=O)[O-])c2c(NCC(O)CO)ccnc12 (stereo not given)
Ans: 2.04

Q: Likewise for O=[N+]([O-])c1cccc2nccc(NCC(O)CO)c12 (stereo not given) ?
Ans: 1.52

Q: Now the compound Cc1cnc2c(C)ccc([N+](=O)[O-])c2c1NCCCN(C)C
Ans: 2.44

Q: Further, for Cc1cc(C)c2nccc(NCCCN(C)C)c2c1[N+](=O)[O-] ?
Ans: 1.87

Q: And Cc1nc2c(C)ccc([N+](=O)[O-])c2c(NCCCN(C)C)c1C ?
Ans: 2.05

Q: COc1cc(OC)c2nccc(NCCCN(C)C)c2c1[N+](=O)[O-] ?
Ans: 2.27

Q: Repeat with O=[N+]([O-])c1cccc2nccc(NCCCO)c12
Ans: 1.41

Q: // repeat for COc1ccc([N+](=O)[O-])c2c(NCCCN(C)C)c(C)c(C)nc12 and report
Ans: 2.22

Each recorded value in this set is attributed to ChEMBL document CHEMBL1130320.
